- Tested on: chiens Beagle
- experimental-protocol: Anti-emetic test: apomorphine-induced vomiting in Beagle dogs
- Type: in vivo
- study-conditions: percentage decrease in number of vomitings vs control trial; compound about 1 mg/kg intramuscular at time 0, apomorphine about 100 µg/kg subcutaneous 30 minutes later
// reported Diminution par rapport au témoin (%) per item
test-readout: Diminution par rapport au témoin (%)

# compound, measured-result
records = [
    ("CCN1CCCCCC1CNS(=O)(=O)c1cc(Cl)c(N)cc1OC (racemic)", 60),
    ("CCN1CCCC1CNS(=O)(=O)c1cc(Cl)c(N)cc1OC (racemic) [racémique du lévo-gyre n° 1 135, reference compound]", 10),
    ("CCN1CCC[C@H]1CNS(=O)(=O)c1cc(Cl)c(N)cc1OC", 50),
    ("CCN1CCC[C@H]1CNS(=O)(=O)c1cc(Cl)c(OC)cc1OC", 20),
]
